- experimental_target: human P2X3 receptor (Homo sapiens (Human), UniProt P56373)
- Sequence (P56373 whole entry): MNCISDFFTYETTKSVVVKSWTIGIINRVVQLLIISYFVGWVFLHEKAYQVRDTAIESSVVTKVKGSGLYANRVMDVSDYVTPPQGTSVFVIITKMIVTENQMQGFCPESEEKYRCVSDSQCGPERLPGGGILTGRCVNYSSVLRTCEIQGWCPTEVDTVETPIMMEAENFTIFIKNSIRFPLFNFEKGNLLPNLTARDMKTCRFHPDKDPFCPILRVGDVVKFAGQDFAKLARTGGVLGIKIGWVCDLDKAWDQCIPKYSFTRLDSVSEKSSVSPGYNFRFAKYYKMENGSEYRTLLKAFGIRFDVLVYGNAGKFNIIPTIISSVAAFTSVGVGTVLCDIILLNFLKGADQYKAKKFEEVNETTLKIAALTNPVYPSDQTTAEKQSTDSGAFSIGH
- experimental_details: Evaluation of human P2X3 receptor inhibitory activity (Fluo-3 calcium fluorescence, FDSS 3000, ATP stimulation)
- Type: cell-based
- measurement_setup: C6BU-1 cells stably expressing human P2X3 receptor
pIC50: −log10 of the molar value.
Entries and their measured pIC50 follow.
metric: pIC50

> print(dat)
                         structure.as.smiles  measurement
 1  CCn1c(=O)[nH]/c(=N\c2ccc(Oc3ccnc(C(=O)OC)c3)cc2)n(Cc2ccc(Cl)cn2)c1=O         6.98
 2  COCCOc1ccc(/N=c2\[nH]c(=O)n(C[C@H](C)C(=O)OC)c(=O)n2Cc2ccc(Cl)cc2)cc1Cl         7.06
 3  COC(=O)[C@@H](C)Cn1c(=O)[nH]/c(=N\c2ccc(CC(C)C)c(Cl)c2)n(Cc2ccc(C)cc2)c1=O         8.05
 4  Cc1cc(/N=c2\[nH]c(=O)n(C[C@H](C)C(=O)NCC(F)(F)F)c(=O)n2Cc2ccc(Cl)cc2)ccc1OC(C)C         7.80
 5  Cn1c(=O)[nH]/c(=N\c2ccc(Oc3ccc(C(=O)O)cc3)cc2)n(Cc2ccc(Cl)cc2)c1=O         6.92
 6  Cc1ccc(Oc2ccc(/N=c3\[nH]c(=O)n(CC(N)=O)c(=O)n3Cc3ccc(Cl)cc3)cc2)cn1         7.96
 7  CCn1c(=O)[nH]/c(=N\c2ccc(Oc3ccnc(C(=O)O)c3)cc2)n(Cc2ccc(Cl)cn2)c1=O         7.85
 8  CC(C)Oc1ccc(/N=c2\[nH]c(=O)n([C@@H]3C[C@H]3C(=O)OC(C)(C)C)c(=O)n2Cc2ccc(Cl)cc2)cc1F         7.89
 9  Cc1[nH]c2ccc(/N=c3\[nH]c(=O)n(C[C@H](O)CO)c(=O)n3Cc3ccc(Cl)cc3)cc2c1C         8.05
10  Cc1cc2cc(/N=c3\[nH]c(=O)n(CCCO)c(=O)n3Cc3ccc(Cl)cc3)ccc2o1         7.77
11  Cc1[nH]c2ccc(/N=c3\[nH]c(=O)n(CCC(N)=O)c(=O)n3Cc3ccc(Cl)cc3)cc2c1C         7.96
12  COC(=O)[C@@H](C)Cn1c(=O)[nH]/c(=N\c2ccc(NS(C)(=O)=O)cc2)n(Cc2ccc(C)cc2)c1=O         6.85

* * *

- experimental_target: human P2X3 receptor (Homo sapiens (Human), UniProt P56373)
- experimental_details: Evaluation of human P2X3 receptor inhibitory activity (Fluo-3 calcium fluorescence, FDSS 3000, ATP stimulation);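 also: stimulus was 50 nM ATP with fluorescence followed for 3 min, and the response per well was peak post-ATP fluorescence divided by the reading at measurement start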
- Format: cell-based
- measurement_setup: C6BU-1 cells stably expressing human P2X3 receptor
pIC50: −log10 of the molar value.
Entries and their measured pIC50 follow.
metric: pIC50

> print(dat)
                        structure.as.smiles  metric  measurement
1  CCCc1ccc(/N=c2\[nH]c(=O)n(C[C@H](C)C(=O)O)c(=O)n2Cc2ccc(Cl)cc2)cc1C   pIC50         6.98
2  Cc1ccc(Cn2c(=O)n(C[C@H](C)C(=O)O)c(=O)[nH]/c2=N\c2cnc(Oc3ccccc3)c(Cl)c2)cc1   pIC50         6.58
3  CCOC(=O)CCn1c(=O)[nH]/c(=N\c2ccc(CC(C)C)c(Cl)c2)n(Cc2ccc(C)cc2)c1=O   pIC50         7.30
4  COC(=O)[C@@H](C)Cn1c(=O)[nH]/c(=N\c2ccc3nc(C)oc3c2)n(Cc2ccc(C)cc2)c1=O   pIC50         7.11
5  COCCOc1ccc(/N=c2\[nH]c(=O)n(C[C@H](C)C(=O)O)c(=O)n2Cc2ccc(Cl)cc2)cc1   pIC50         6.53
6  COC(=O)[C@@H](C)Cn1c(=O)[nH]/c(=N\c2ccc(NC(=O)C(C)C)c(Cl)c2)n(Cc2ccc(C)cc2)c1=O   pIC50         6.52
7  Cc1ccc(Cn2c(=O)n(CCC(=O)O)c(=O)[nH]/c2=N\c2ccc(CC(C)C)c(C)c2)cc1   pIC50         7.27
8  CNC(=O)CCn1c(=O)[nH]/c(=N\c2ccc(OC3CCC3)cc2)n(Cc2ccc(Cl)cc2)c1=O   pIC50         7.72
9  Cc1cc2cc(/N=c3\[nH]c(=O)n(CC(CO)CO)c(=O)n3Cc3ccc(Cl)cc3)ccc2o1   pIC50         7.72

Reference source: patent US9718790B2
